This collection of values is drawn from the supplement of paper PMC13380429.

test system: Vero E6 infected with SARS-CoV-2; assay: inhibition of SARS-CoV-2 cytopathic effect; higher = more antiviral protection, active = above 15; conditions: 833.33 nM; 48 h
value_type: inhibition of SARS-CoV-2 cytopathic effect (%)
Write down the numeric answer in % and omit the unit.

{"compound": "CCN(CC)C(=S)S [ditiocarb-sodium-trihydrate]", "result": -0.23}

Exercise: Kindly state the measured inhibition of SARS-CoV-2 cytopathic effect obtained for Cc1ccc(C)c(OCCCC(C)(C)C(=O)O)c1 with Vero E6 infected with SARS-CoV-2.
Solution: 0.31

Exercise: Kindly state the measured inhibition of SARS-CoV-2 cytopathic effect obtained for CC(C)c1ccc(NC(=O)Cn2cnc3c2c(=O)n(C)c(=O)n3C)cc1 with Vero E6 infected with SARS-CoV-2.
Solution: 2.45

Exercise: Kindly state the measured inhibition of SARS-CoV-2 cytopathic effect obtained for COc1cc(N)c(Cl)cc1C(=O)NC1CCN(Cc2ccccc2)CC1 [clebopride] with Vero E6 infected with SARS-CoV-2.
Solution: 6.56

----------
system: Vero E6 infected with SARS-CoV-2; assay: SARS-CoV-2 infection rate relative to infected DMSO; higher = more infection, active = 60 or less; settings: 24 h
Here the recorded SARS-CoV-2 infection rate is given for each entry.

{"molecule": "C[C@H]1N=C(N(C)C)N=C(N)N1 [imeglimin] (10 µM)", "result": "99% (inactive)"}
{"molecule": "O=C(/C=C/c1ccc(CN(CCO)CCc2c[nH]c3ccccc23)cc1)NO [dacinostat] (0.833333 µM)", "result": "104% (inactive)"}
{"molecule": "COc1ccc(C2=N[C@@H](c3ccc(Cl)cc3)[C@@H](c3ccc(Cl)cc3)N2C(=O)N2CCNC(=O)C2)c(OC(C)C)c1 [nutlin-3] (0.833333 µM)", "result": "117% (inactive)"}
{"molecule": "CN(C)CCc1c[nH]c2ccc(Cn3cncn3)cc12 [rizatriptan] (10 µM)", "result": "114% (inactive)"}
{"molecule": "COc1cc(C(=S)N2CCOCC2)cc(OC)c1OC [sulmetozine] (10 µM)", "result": "106% (inactive)"}

Exercise: Recorded SARS-CoV-2 infection rate for CC#CC(=O)N1CCC[C@H]1c1nc(-c2ccc(C(=O)Nc3ccccn3)cc2)c2c(N)nccn12 [acalabrutinib] (10 µM) , please?
Solution: 108% (inactive)

Exercise: Recorded SARS-CoV-2 infection rate for CCC(N)C(O)c1ccc(O)c(O)c1 (stereo unspecified) [ethylnorepinephrine] (10 µM) , please?
Solution: 106% (inactive)

Exercise: Recorded SARS-CoV-2 infection rate for O=C(Nc1ccccc1)OCC(CN1CCCCC1)OC(=O)Nc1ccccc1 (stereo unspecified) [diperodon] (10 µM) , please?
Solution: 108% (inactive)

----------
tested on: Vero E6 infected with SARS-CoV-2; assay: inhibition of SARS-CoV-2 cytopathic effect; higher = more antiviral protection, active = above 15; conditions: 100 nM; 48 h
Here the recorded inhibition of SARS-CoV-2 cytopathic effect is given for each entry.
Write down the numeric answer in % and omit the unit.

{"compound": "c1cn2cc(-c3ccc4cn[nH]c4c3)nc(Nc3ccc(N4CCOCC4)cc3)c2n1", "subject_of_test": "Vero E6 infected with SARS-CoV-2", "unit_name": "%", "result": -4.69}
{"compound": "Cc1ccc(S(N)(=O)=O)cc1 [para-toluenesulfonamide]", "subject_of_test": "Vero E6 infected with SARS-CoV-2", "unit_name": "%", "result": 1.14}
{"compound": "COc1cc2c(N3CCN(C(=O)Nc4ccc(OC(C)C)cc4)CC3)ncnc2cc1OCCCN1CCCCC1", "subject_of_test": "Vero E6 infected with SARS-CoV-2", "unit_name": "%", "result": -2.54}

Field: next compound
Exercise: Kindly state the measured inhibition of SARS-CoV-2 cytopathic effect obtained for Cn1cc(C2=C(c3cn(CCCSC(=N)N)c4ccccc34)C(=O)NC2=O)c2ccccc21 [bisindolylmaleimide-IX] with Vero E6 infected with SARS-CoV-2.
Solution: -3.04

----------
Here the recorded SARS-CoV-2 infection rate is given for each entry.
system: Vero E6 infected with SARS-CoV-2; assay: SARS-CoV-2 infection rate relative to infected DMSO; higher = more infection, active = 60 or less; details: 24 h
Write down the numeric answer in % and omit the unit.

Example entries and their recorded answers appear below.
{"compound": "CCCCNC(=O)NS(=O)(=O)c1ccc(C)cc1 [tolbutamide] (10 µM)", "SARS-CoV-2 infection rate, %": 96.5}
{"compound": "CCN(CC)CCCCC1CCN(CC(=O)N2c3ccccc3C(=O)Nc3cccnc32)CC1 (10 µM)", "SARS-CoV-2 infection rate, %": 108}
{"compound": "CC[C@@H](C)c1ccc(NC(=O)Cn2cnc3c2c(=O)n(C)c(=O)n3C)cc1 (racemic) (10 µM)", "SARS-CoV-2 infection rate, %": 92}

Exercise: Recorded SARS-CoV-2 infection rate for CC1=C(CC(=O)O)c2cc(F)ccc2/C1=C\c1ccc([S+](C)[O-])cc1 (stereo not drawn) [sulindac] (10 µM) , please?
Solution: 104

Exercise: Recorded SARS-CoV-2 infection rate for COc1cccc(-c2cc(=O)c3ccccc3o2)c1N (10 µM) , please?
Solution: 118

Exercise: Recorded SARS-CoV-2 infection rate for N[C@H](C(=O)O)c1ccc(O)cc1 [oxfenicine] (10 µM) , please?
Solution: 103

Exercise: Recorded SARS-CoV-2 infection rate for O=C(NC(NC(=S)Nc1ccc(F)c([N+](=O)[O-])c1)C(Cl)(Cl)Cl)C(c1ccccc1)c1ccccc1 (stereo not drawn) (0.833333 µM) , please?
Solution: 104

Exercise: Recorded SARS-CoV-2 infection rate for OCc1ccccc1O [salicyl-alcohol] (10 µM) , please?
Solution: 106

----------
tested on: Vero E6 infected with SARS-CoV-2; test: inhibition of SARS-CoV-2 cytopathic effect; higher = more antiviral protection, active = above 15; details: 100 nM; 48 h
Counter-ions that a name gives are not always drawn.
value_type: inhibition of SARS-CoV-2 cytopathic effect (%)
Write down the numeric answer in % and omit the unit.

{"compound": "Cc1cc([C@@H](C)Nc2ccccc2C(=O)O)c2nc(N3CCOCC3)cc(=O)n2c1", "subject_of_test": "Vero E6 infected with SARS-CoV-2", "result": -4.63}

Exercise: Recorded inhibition of SARS-CoV-2 cytopathic effect for COc1cc(N2CCOCC2)ccc1Nc1ncc(Cl)c(Nc2ccccc2NS(C)(=O)=O)n1 , please?
Solution: 2.32

Exercise: Recorded inhibition of SARS-CoV-2 cytopathic effect for c1ccc(NCc2ccc(CNc3ccccn3)cc2)nc1 , please?
Solution: -3.43

Exercise: Recorded inhibition of SARS-CoV-2 cytopathic effect for O=C1CCC2CCC(=O)N12 , please?
Solution: 1.49

Exercise: Recorded inhibition of SARS-CoV-2 cytopathic effect for O=C(O)CCCc1ccc(N(CCCl)CCCl)cc1 , please?
Solution: -0.7

Exercise: Recorded inhibition of SARS-CoV-2 cytopathic effect for C[C@H](N)Cc1c[nH]cn1 [alpha-methylhistamine-dihydrobromide-(S)-(+)] , please?
Solution: 8.02

Exercise: Recorded inhibition of SARS-CoV-2 cytopathic effect for Cc1cc(C(C)(C)CC(C)(C)C)ccc1OCCOCC[N+](C)(C)Cc1ccccc1 [methylbenzethonium-chloride] , please?
Solution: -3.07

Exercise: Recorded inhibition of SARS-CoV-2 cytopathic effect for CC(C)NC[C@@H](O)COc1ccc(CC(N)=O)cc1 (racemic) [atenolol-(+/-)] , please?
Solution: 0.74

Exercise: Recorded inhibition of SARS-CoV-2 cytopathic effect for Cc1cc(C)c2c(N)c(C(=O)NCc3ccc(Cl)cc3)sc2n1 , please?
Solution: -0.97

Exercise: Recorded inhibition of SARS-CoV-2 cytopathic effect for C1CCC2(CC1)CCNCC2 [4,4-pentamethylenepiperidine] , please?
Solution: -1

Exercise: Recorded inhibition of SARS-CoV-2 cytopathic effect for CCOc1cccc(NC(=O)c2ccc(N3CCCC3)c(C(F)(F)F)c2)c1 , please?
Solution: -0.42

----------
tested on: Vero E6 infected with SARS-CoV-2; assay: SARS-CoV-2 infection rate relative to infected DMSO; higher = more infection, active = 60 or less; details: 24 h
Here the recorded SARS-CoV-2 infection rate is given for each entry.
Write down the numeric answer in % and omit the unit.

{"compound": "O=C1C(Cl)=C(NCCN2CCOCC2)C(=O)c2ncccc21 (0.833333 µM)", "value_type": "SARS-CoV-2 infection rate", "result": 94}
{"compound": "CCCCCCCCCCCC(=O)O [lauric-acid] (10 µM)", "value_type": "SARS-CoV-2 infection rate", "result": 96.5}
{"compound": "O=C(O)/C=C/c1ccc(-c2ccc(O)c(C34CC5CC(CC(C5)C3)C4)c2)cc1 [adarotene] (10 µM)", "value_type": "SARS-CoV-2 infection rate", "result": 100}
{"compound": "C[C@H]1CC[C@H](n2c3cnccc3c3cnc(Nc4ccc5c(n4)CCN(C(=O)CO)C5)nc32)CC1 (10 µM)", "value_type": "SARS-CoV-2 infection rate", "result": 110}
{"compound": "CCN(CC)CCNC(=O)c1ccc(N)cc1 [procainamide] (10 µM)", "value_type": "SARS-CoV-2 infection rate", "result": 116}

Exercise: Kindly state the measured SARS-CoV-2 infection rate obtained for Cc1ccc(Nc2c(F)cccc2Cl)c(CC(=O)O)c1 [lumiracoxib] (10 µM) with Vero E6 infected with SARS-CoV-2.
Solution: 109

Exercise: Kindly state the measured SARS-CoV-2 infection rate obtained for O=C(Nc1nc2ccc(NC(=O)C34CC5CC(CC(C5)C3)C4)cc2s1)c1ccccc1 (0.833333 µM) with Vero E6 infected with SARS-CoV-2.
Solution: 105

Exercise: Kindly state the measured SARS-CoV-2 infection rate obtained for Cc1cc(F)c(Nc2ncnc3cc(OCc4ccccc4)ccc23)cc1O (10 µM) with Vero E6 infected with SARS-CoV-2.
Solution: 99
